B1: TRIM63 (parent)
chain: ANPYWTSRGSSVSMSGGRFRCPTC

Variants of: B1
Test: protein stability index of a GFP-peptide fusion (GPS, HEK-293T) (PSI 1-6); higher = more stable;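 further: lentivirally expressed fusions sorted by FACS into six bins by GFP to DsRed ratio, PSI derived from sequencing read proportions per bin multiplied by bin number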
Conditions: c terminus: a fixed tail appended
endpoint label: protein stability index

Requested field: protein stability index. Item: P22F 2.97

Do the same for G9F please 1.92

Do the same for T23W please 2.47

Do the same for C21P please 2.72

Do the same for F19H please 2.12

Do the same for G9D please 1.94

Do the same for G9H please 1.31

Do the same for P22D please 2.22

Do the same for A1N please 2.18

Do the same for S11I please 3.32

Do the same for S10C please 2.18

Do the same for C21R please 2.77

Do the same for A1F please 2.58

Do the same for N2T please 1.73

Do the same for N2I please 3.56

Do the same for S15A please 2.94

Do the same for G17R please 2.65

Do the same for P3H please 2.82

Do the same for Y4W please 2.18

Do the same for G9N please 2.13

Do the same for P22T please 2.69

Do the same for T23N please 2.03

Do the same for M14S please 2.32

Do the same for R8Y please 1.71

Do the same for N2G please 1.84

Do the same for S15Q please 2.58

Do the same for F19M please 2.79

Do the same for C21L please 2.32

Do the same for F19Q please 2.19

Do the same for P22V please 2.56

Do the same for G9L please 1.56

Do the same for A1H please 1.88

Do the same for S10W please 3.35

Do the same for N2R please 2.05

Do the same for S15W please 1.8

Do the same for A1G please 1.66

Do the same for R18C please 1.4

Do the same for V12I please 2.46

Do the same for C24N please 2.66

Do the same for C24M please 2.07

Do the same for A1L please 1.89

Do the same for Y4R please 1.47

Do the same for R18F please 1.46

Do the same for R20K please 2.61

Do the same for M14L please 2.21

Do the same for T6C please 1.58
